experimental system: T1, huIgG1 monoFc tagged GALV gp70 protein (residues 42-474) (Gibbon ape leukemia virus, UniProt P21415 42-474)
T1 construct: also called gp70 (42-474)
T1 sequence: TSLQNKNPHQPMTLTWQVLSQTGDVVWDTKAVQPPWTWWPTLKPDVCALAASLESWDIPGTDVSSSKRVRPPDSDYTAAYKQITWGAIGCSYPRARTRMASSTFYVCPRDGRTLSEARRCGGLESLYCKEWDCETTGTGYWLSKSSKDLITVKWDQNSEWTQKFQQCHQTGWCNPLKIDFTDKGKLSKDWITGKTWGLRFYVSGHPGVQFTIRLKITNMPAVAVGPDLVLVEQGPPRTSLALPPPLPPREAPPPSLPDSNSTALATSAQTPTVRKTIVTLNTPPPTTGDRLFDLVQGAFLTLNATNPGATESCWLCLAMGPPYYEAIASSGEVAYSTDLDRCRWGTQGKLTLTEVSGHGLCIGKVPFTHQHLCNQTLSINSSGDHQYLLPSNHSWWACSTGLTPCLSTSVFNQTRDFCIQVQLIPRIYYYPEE
assay name: BLI Octet Red96; antibody on AMC biosensor, 100 nM monoFc-gp70(42-474) analyte
Items are presented alongside their recorded koff.

{"columns": ["binder", "koff"],
 "data": [
  ["4F1 (antibody, V domains shown, Anti-GALV gp70; One id for the hybridoma supernatant and the recombinant murine IgG2a antibody; also called 4F1-HC / 4F1-LC1) VH: QVQLQQPGAELVRPGSSVKLSCKASGYTFTSYWMDWMKQRPGQGLEWIGHIYPSDSETHYNQKFKDRATLTVDKSSSAAFMQLSSLTSEDSAVYYCARDYYWGQGTTLTVSS VL: QAVVTQESALTTSPGETVTLTCRSSTGAVTTSNYANWVQEKPDHLFTGLIGGTNNRAPGVPARFSGSLIGDKAALTITGAQTEDEAIYFCALWYSNHLVFGGGTKLTVLQ", "0.000607 s⁻¹"],
  ["9G11 (antibody, V domains shown, Anti-GALV gp70; One id for the hybridoma supernatant and the recombinant murine IgG2a antibody; also called 9G11-HC / 9G11-LC) VH: QVQLQQPGAELVRPGSSVKLSCKASGYTFTNYWMDWVKQRPGQGLEWIGHIYPSDSETHYIQKFKDKATLTVDKSSNTAYMQLSSLTSEDSAVYYCARDYYWGQGTTLTVSS VL: QAVVTQESALTTSPGETVTLTCRSSTGAVTTSNYANWVQEKPDHLFTGLIGGTNNRAPGVPARFSGSLIGDKAALTITGAQTEDEAIYFCALWYSSQLVFGGGTKLTVLQ", "0.000257 s⁻¹"]
]}

The origin of these recorded values is patent US20240343820A1.
